Cited source: patent US20250243286A1

biological target: ActRIIA and ActRIIB (on TGFB/SMAD SBE Reporter HEK293 cells) (human); assay: cell-based or functional assay
Sequence (chain, as listed by the source, chain 1 of 2): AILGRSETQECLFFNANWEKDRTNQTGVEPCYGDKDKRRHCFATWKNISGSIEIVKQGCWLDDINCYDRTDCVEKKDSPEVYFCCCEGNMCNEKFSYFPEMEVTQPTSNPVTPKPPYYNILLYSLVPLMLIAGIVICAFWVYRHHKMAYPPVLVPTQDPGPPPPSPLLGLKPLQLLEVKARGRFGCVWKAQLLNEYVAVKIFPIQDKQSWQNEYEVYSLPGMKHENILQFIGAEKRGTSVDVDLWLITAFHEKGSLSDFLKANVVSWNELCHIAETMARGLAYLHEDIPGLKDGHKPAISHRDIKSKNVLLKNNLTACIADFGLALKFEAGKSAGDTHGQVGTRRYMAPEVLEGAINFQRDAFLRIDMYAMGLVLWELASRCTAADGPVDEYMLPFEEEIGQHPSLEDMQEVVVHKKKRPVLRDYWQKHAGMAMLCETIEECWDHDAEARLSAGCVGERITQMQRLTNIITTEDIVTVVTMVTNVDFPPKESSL
Sequence (chain, as listed by the source, chain 2 of 2): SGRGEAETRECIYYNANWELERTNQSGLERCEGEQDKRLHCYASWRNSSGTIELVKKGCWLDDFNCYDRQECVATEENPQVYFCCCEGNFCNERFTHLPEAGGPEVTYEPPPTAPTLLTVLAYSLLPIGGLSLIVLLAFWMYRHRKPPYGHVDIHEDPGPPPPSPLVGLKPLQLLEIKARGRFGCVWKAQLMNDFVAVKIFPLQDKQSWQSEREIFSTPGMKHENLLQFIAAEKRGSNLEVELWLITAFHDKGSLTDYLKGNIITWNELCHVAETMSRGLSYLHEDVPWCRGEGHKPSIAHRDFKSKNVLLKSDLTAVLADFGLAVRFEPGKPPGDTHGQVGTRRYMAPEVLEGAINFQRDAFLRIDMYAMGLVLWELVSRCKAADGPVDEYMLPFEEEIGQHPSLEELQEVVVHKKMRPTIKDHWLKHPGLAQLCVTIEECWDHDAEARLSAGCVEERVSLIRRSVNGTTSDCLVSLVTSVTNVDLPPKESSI
Observed property: IC50, Myostatin SMAD RGA (nM)
Return type: number; implicit unit nM.

Give the reported value of IC50, Myostatin SMAD RGA for this record: Antibody Fasnetsküchla (antibody, V domains shown, full-length IgG) VH: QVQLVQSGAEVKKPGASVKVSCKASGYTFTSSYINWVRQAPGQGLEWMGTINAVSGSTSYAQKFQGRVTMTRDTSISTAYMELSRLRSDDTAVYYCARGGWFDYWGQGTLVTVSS VL: QSALTQPASVSGSPGQSITISCTGTSSDVGSANYVNWYQQHPGKAPKPMIYGVSRRPSGVSNRFSGSKSGNTASLTISGLQAEDEADYYCGTFAGGKYYGVFGGGTKLTVL 0.513

Give reported IC50, Myostatin SMAD RGA value for Antibody Bebballesgmias (antibody, V domains shown, full-length IgG) VH: QVQLVQSGAEVKKPGSSVKVSCKASGYKFTSSYINWVRQAPGQGLEWMGTINPVSGSTSYAQKFQGRVTITADTSTSTAYMELSSLRSEDTAVYYCARGGWFDYWGQGTLVTVSS VL: QSALTQPRSVSGSPGQSVTISCTGTSSDVGSYNYVNWYQQHPGKAPKLMIYGVSKRPRGVPDRFSGSKSGNTASLTISGLQAEDEADYYCGTFAGGSYYGVFGGGTKLTVL 0.181

Retrieve IC50, Myostatin SMAD RGA measured for Antibody Ochsauga (antibody, V domains shown, full-length IgG) VH: QVQLVQSGAEVKKPGASVKVSCKASGYTFTSSYINWVRQAPGQGLEWMGTINAVSGSTSYAQKFQGRVTMTRDTSISTAYMELSRLRSDDTAVYYCARGGWFDVWGQGTLVTVSS VL: QSALTQPASVSGSPGQSITISCTGTSSDIGSYNYVNWYQQHPGKAPKLMIYGVSKRESGVSNRFSGSKSGNTASLTISGLQAEDEADYYCGTFAGGSYYGVFGGGTKLTVL and print it. 0.327
